Reported composite z-score values for a set of compounds
System: XIP peptide (Xip251-270) binding
measurement description: XIP fragment 251-270 binding compounds – biochemical, small-molecule microarray, fluorescence 635/667 nm, 0.1 µg/mL protein, primary screen (AID 1182)
run conditions: fluorescent protein binding, 635 nm, higher = more signal, called active from +8 up or from −8 down
Reply with the value as a number alone.

For orientation, consider the following solved cases.
>  <compound>
COC(=O)[C@@]1(Cc2ccc(OC)cc2)[C@H]2c3cc(C(=O)N4CCCC4)n(Cc4ccc(C(F)(F)F)nc4)c3C[C@H]2CN1C(=O)c1ccccc1

>  <composite z-score>
0.143

$$$$
>  <compound>
COCCCNC(=O)[C@@]1(CCS(=O)(=O)c2ccccc2)COC(c2ccc(OCCCO)cc2)=N1

>  <composite z-score>
1.85

$$$$
>  <compound>
CC(C)=C1C(=O)C(c2ccccc2)=C2CN3C(=O)N(CCc4ccccc4)C(=O)[C@]3(C)[C@H]21

>  <composite z-score>
0.254

$$$$
>  <compound>
CC(C)(C)N1CC=CC23O[C@@H]4/C=C\CCCOC(=O)C4[C@H]2C(=O)N(CCCCCO)[C@@H]3C1=O (stereo partly drawn)

>  <composite z-score>
0.176

$$$$

Record for "CC(C)(C)OC(=O)CC[C@@]1(C(=O)NCCN2CCOCC2)N=C(c2ccc(OCCCO)cc2)O[C@@H]1c1ccccc1CN=[N+]=[N-]" under target or system XIP peptide (Xip251-270) binding: composite z-score reported as 0.158

Record for "COc1ccc(C(=O)Nc2cccc(CN3C(=O)[C@]4(O[C@H](CC(=O)N5Cc6ccccc6C[C@H]5CO)[C@@H]([Si](C)(C)c5ccc(OC)cc5)[C@@H]4C)c4ccccc43)c2)cc1" under target or system XIP peptide (Xip251-270) binding: composite z-score reported as -0.335

Record for C[C@@H]1NC(=O)C([C@@H](C)OCc2ccccc2)NC(=O)[C@@]23C(=O)N[C@@H](Cc4ccccc4)C2[C@H](C)[C@@]2(C)O[C@H]2C3/C=C/C/C=C\CNC1=O (stereo partly drawn) under target or system XIP peptide (Xip251-270) binding: composite z-score reported as -0.501

----------
measurement description: calcein-AM signal in unstimulated myeloma cells – cell-based, calcein-AM fluorescence, 48 h, PK04 Diversity Set, profiling panel (AID 1166);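 note: cells grown under basal conditions without added stimulus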
run conditions: RPMI8226 myeloma viability, higher = more signal
Reported z-score values for a set of molecules
Reply with the value as a number alone.

For orientation, consider the following solved cases.
>  <smiles record>
CCCNC(=O)[C@@]1(c2ccc([N+](=O)[O-])cc2)CC(=O)N(C(C)C)[C@@H]1c1ccc(CO)cc1

>  <z-score>
0.11

$$$$
>  <smiles record>
COc1ccc([Si](C)(C)[C@@H]2[C@@H](CC(=O)N3CCC[C@H]3CO)O[C@]3(C(=O)N(Cc4cccc(N5CCCCC5=O)c4)c4ccccc43)[C@H]2C)cc1

>  <z-score>
-4.25

$$$$
>  <smiles record>
C=CC[C@@]12N=C(c3ccc(OCCCO)cc3)O[C@@H]1c1ccccc1N(CCC)C2=O

>  <z-score>
-3.66

$$$$
>  <smiles record>
COCCOC(=O)N1C(=O)[C@@]2(c3cc(C#CC4(O)CCCCCC4)ccc31)[C@H](c1ccc(O)cc1)N1[C@H](c3ccccc3)[C@H](c3ccccc3)OC(=O)[C@H]1[C@@H]2C(=O)N1CCCCCCC1

>  <z-score>
-1.83

$$$$
>  <smiles record>
CC(=O)NCCCC[C@@H]1NC(=O)[C@H]2C[C@@H](C(=O)NCCCCCCNC(=O)CS)[C@@H](c3cccc(OCCO)c3)N2C1=O

>  <z-score>
0.236

$$$$
>  <smiles record>
O=C(NC1CC1)[C@@H]1c2ccccc2C(=O)N(Cc2ccc(OC(F)(F)F)cc2)[C@H]1c1ccc(CO)cc1

>  <z-score>
-0.0348

$$$$

Please turn your attention to the following entry.
Measured z-score, "COc1ccc(CCNC(=O)[C@@H]2c3ccccc3C(=O)N(Cc3ccccc3OC)[C@H]2c2ccc(CO)cc2)cc1" : 0.245
